- measured-on: human GPR120 (Homo sapiens (Human), UniProt Q5NUL3)
- Sequence (Q5NUL3 whole entry): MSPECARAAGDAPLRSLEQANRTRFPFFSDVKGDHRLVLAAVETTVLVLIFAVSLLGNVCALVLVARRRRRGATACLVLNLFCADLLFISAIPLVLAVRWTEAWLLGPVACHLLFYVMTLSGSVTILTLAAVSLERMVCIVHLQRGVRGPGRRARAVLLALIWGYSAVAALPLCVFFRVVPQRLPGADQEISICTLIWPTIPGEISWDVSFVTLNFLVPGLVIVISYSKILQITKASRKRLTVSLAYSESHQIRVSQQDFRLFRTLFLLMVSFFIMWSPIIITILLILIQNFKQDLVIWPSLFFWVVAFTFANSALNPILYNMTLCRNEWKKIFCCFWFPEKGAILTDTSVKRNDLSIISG
- experiment-notes: GPR120 pERK AlphaScreen SureFire Assay (human GPR120 pERK assay)
- conditions: CHO cells stably transfected with short form of human GPR120
observable: log10(EC50) (log10 of the value in nM)

INSERT INTO assay_data (compound, reading) VALUES
  ('Cc1cc(-c2cc(OC(C)C)ccc2F)ccc1OC[C@@H]1C[C@H]1C(=O)O (racemic)', 2.49),
  ('COc1ccc(F)c(-c2ccc(CC[C@@H]3C[C@H]3C(=O)O)cc2)c1 (relative stereo)', 3.51),
  ('CCOc1ccc(F)c(-c2ccc(OC[C@@H]3C[C@H]3C(=O)O)cc2)c1 (racemic)', 2.82),
  ('CC(C)Oc1ccc(F)c(-c2ccc(CC[C@]3(F)C[C@H]3C(=O)O)cc2)c1 (racemic)', 3.31),
  ('O=C(O)[C@@H]1CC1COc1ccc(-c2cc(Oc3cccc(F)c3)ccc2F)cc1F (stereo partly shown)', 1.85),
  ('O=C(O)C1CC1COc1ccc(-c2cc(OC(F)(F)F)ccc2F)cc1 (single isomer, unassigned) [Example 52]', 2.79),
  ('O=C(O)[C@@H]1C[C@H]1COc1ccc(-c2cc(Oc3cccc(F)c3)cc(F)c2F)cc1F (single isomer, unassigned)', 2.43);
